Target: BCL6 BTB domain (Homo sapiens)
Test: biochemical
Details: read-out: BCL6 TR-FRET Geo Mean IC50; geometric mean of n replicates; supplement
attribute measured: log10 IC50 (log10 of the value in µM)

# molecule, log10 IC50
measured = [
    ("CNC(=O)[C@@H](C)Nc1cc(=O)[nH]c2ccc(Nc3ccnc(Cl)c3C#N)cc12 [Compound 12b]", -0.60),
    ("CNC(=O)C(C)Nc1cc(=O)[nH]c2ccc(Nc3ccnc(Cl)c3C#N)cc12 (stereo not shown) [Compound 12a]", -0.26),
    ("Cn1c(=O)ccc2cc(Nc3ccnc(Cl)c3C#N)ccc21", 0.43),
    ("N#Cc1c(Nc2ccc3[nH]c(=O)cc(N4CCOCC4)c3c2)ccnc1Cl", 0.33),
    ("CN1CCN(c2cc(=O)[nH]c3ccc(Nc4ccnc(Cl)c4C#N)cc23)CC1", 0.42),
    ("CNC(=O)C(Nc1cc(=O)[nH]c2ccc(Nc3ccnc(Cl)c3C#N)cc12)C1CC1 (stereo not shown) [Compound 12d]", 0.03),
    ("Cn1cc(-c2cc(=O)[nH]c3ccc(Nc4ccnc(Cl)c4C#N)cc23)cn1", 0.26),
    ("CCCNc1cc(=O)n(C)c2ccc(Nc3cc(C(=O)O)nc(Cl)c3C#N)cc12 [Compound 11b]", 0.18),
    ("Cc1nnc(C(C)Nc2cc(=O)n(C)c3ccc(Nc4ccnc(Cl)c4C#N)cc23)o1 (stereo not shown) [Compound 13c]", -0.06),
    ("N#Cc1c(Nc2ccc3[nH]c(=O)cc(N4CCCCC4)c3c2)ccnc1Cl", 0.07),
    ("CNC(=O)[C@H](C)Nc1cc(=O)[nH]c2ccc(Nc3ccnc(Cl)c3C#N)cc12 [Compound 12c]", 0.43),
    ("CNC(=O)CNc1cc(=O)[nH]c2ccc(Nc3ccnc(Cl)c3C#N)cc12 [Compound 12e]", 1.38),
    ("CC(Nc1cc(=O)n(CC2CC2)c2ccc(Nc3ccnc(Cl)c3C#N)cc12)c1ncccn1 (stereo not shown) [Compound 17a]", -0.38),
    ("CC(Nc1cc(=O)n(CC2CCC2)c2ccc(Nc3ccnc(Cl)c3C#N)cc12)c1ncccn1 (stereo not shown) [Compound 17b]", -0.49),
    ("CCNc1cc(=O)n(C)c2ccc(Nc3cc(C(=O)O)nc(Cl)c3C#N)cc12 [Compound 11a]", -0.05),
    ("Cn1c(=O)cc(NC(C)(C)c2ncc(C3CC3)cn2)c2cc(Nc3ccnc(Cl)c3C#N)ccc21", -1.58),
]

From: paper PMC8667045
